System: T47D
Assay: NCI tumour cell line growth inhibition, 48 h
Calls of active or inactive are those of the source. Rule as the data show it: active = GI50 up to about 1.1 µM and inactive = higher.
Outcome field: choose from active, inactive

>>> categorylabel("C(#C[C@@]12CCC[C@@H]1N(Cc1ccccc1)CO2)c1ccc2c(c1)OCO2")
"inactive"
>>> categorylabel("O=c1n(CCO)nc2n1CCCN2")
"inactive"
>>> categorylabel("CC[C@@]1(OC(=O)C(N)CCC(=O)O)C(=O)OCc2c1cc1n(c2=O)Cc2cc3ccccc3nc2-1 (some centres undefined)")
"active"

Turning to the following compound.
Q: Kindly provide the recorded test outcome for the following compound: CCOP(=O)(CN1CCNCCN(CP(=O)(OCC)OCC)CC1)OCC
Result: inactive

* * *

Test system: KM-20L2
Assay: NCI tumour cell line growth inhibition, 48 h
Activity calls are given as the source filed them. Cut-off read from the data, not from the text of the source: active = GI50 up to about 1.1 µM and inactive = higher.
measuredAttribute: GI50

I would be grateful if you could provide GI50 for each of the following entries.
1. c1cncc(C2c3[nH]c4ccccc4c3CCN2CCCN2CCCCC2)c1 (stereo not drawn)
2. CCOC(=O)/C(C(C)=O)=C1/N[C@H](C(=O)OCC)CS1
3. Cc1ccccc1NC(=O)c1ccc([N+](=O)[O-])cc1

Result:
["> 100 µM (inactive)", "> 100 µM (inactive)", "> 100 µM (inactive)"]

* * *

Tested on: SF-268
Assay: NCI tumour cell line growth inhibition, 48 h
Activity calls are given as the source filed them. Cut-off read from the data, not from the text of the source: active = GI50 up to about 1.1 µM and inactive = higher.
measuredAttribute: GI50

Example compounds with recorded GI50:
>>> resultvalue("COc1cccc(C2CC(C)(O)Oc3cc4c(cc32)OCO4)c1O (centres undefined)")
"31 µM (inactive)"
>>> resultvalue("CSC(=Nc1nnc(-c2ccc([N+](=O)[O-])cc2)s1)SC")
"16.7 µM (inactive)"
>>> resultvalue("CCC1([N+](=O)[O-])CN(N=O)C1")
"> 100 µM (inactive)"

Q: For the compound CN(C)/C=C/C(=CC=[N+](C)C)/C=C/N(C)C.[O-][Cl+3]([O-])([O-])[O-] , what GI50 is on record?
Result: > 100 µM (inactive)

* * *

Test system: A549
Test: NCI tumour cell line growth inhibition, 48 h
Active and inactive are the calls of the source. No stated cut-off is given here; in the data, active = GI50 up to about 1.1 µM and inactive = higher.
Outcome field: choose from active, inactive

Here are 3 compounds together with their reported answers.
>>> categorylabel("O=C1C(=O)N(C(=O)c2ccc(Cl)c(Cl)c2)c2ccc(Cl)cc21")
"inactive"
>>> categorylabel("[N-]=[N+]=NC1(Cc2ccccc2)C(=O)Nc2ccccc2C1=O (stereo not given)")
"inactive"
>>> categorylabel("CN(C)CCNc1ccc(C(=O)NCCCN(C)CCCNC(=O)c2ccc(NCCN(C)C)c3c(=O)c4ccccc4[nH]c23)c2[nH]c3ccccc3c(=O)c12")
"active"

Q: Kindly provide the recorded test outcome for the following compound: N#CCCN(CCC#N)c1ccc(/C=C2\N=C(c3cc([N+](=O)[O-])ccc3Cl)N(NC(=O)CC(=O)Nc3ccccc3Cl)C2=O)cc1
Result: inactive

Q: Kindly provide the recorded test outcome for the following compound: CCOC(=O)/C(C(C)=O)=C1/N[C@H](C(=O)OCC)CS1
Result: inactive

Q: Kindly provide the recorded test outcome for the following compound: O=C(/C=C/c1ccc(Cl)cc1)c1ccc(Cl)c(Cl)c1
Result: inactive

Q: Kindly provide the recorded test outcome for the following compound: COC(=O)C(CCSC)NC(=O)Cc1ccc(C(=O)c2ccccc2)cc1 (stereo not given)
Result: inactive

Q: Kindly provide the recorded test outcome for the following compound: C1CCN2CC3CCCN4CCCC(C2C1)C34 (stereo not given)
Result: inactive

Value source: ChEMBL document CHEMBL1201862
